Origin of the recorded values: patent US8729047B2

Target: RhoC (Homo sapiens)
Sequence (P08134 whole entry): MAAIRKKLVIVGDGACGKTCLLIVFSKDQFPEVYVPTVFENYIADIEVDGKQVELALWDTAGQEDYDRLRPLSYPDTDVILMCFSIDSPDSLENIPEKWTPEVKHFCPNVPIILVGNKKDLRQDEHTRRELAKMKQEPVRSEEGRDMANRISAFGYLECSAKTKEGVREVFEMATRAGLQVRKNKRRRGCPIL
Test: [3H]GDP displacement of 6-TGDP from .NO2-treated 6-TGDP-loaded GTPase with/without DTT (FIG. 13B)
Type: binding
Design: made in house; host or cells: E. coli
Conditions: absence of DTT; calculated by compensation equation; read-out: trueKD [3H]GDP
Description: FIG. 13. Guanine nucleotide exchange of small GTPases with 6-TGDP. (A) To monitor 6-TGDP-mediated GTPase GDP dissociation, [^3H]GDP-loaded GTPase (1 μM) was incubated with 6-TGDP (0-2000 μM) for 1 h. […] The filters were then washed three times with an assay buffer, and radioactivity was determined using a Beckman-Coulter scintillation counter. The resultant radioactivity (dpm) values associated with GTPase-bound [^3H]GDP were converted into the fraction of mol nucleotide per mol total GTPase. […]
Measured metric: pKd
Lab note — pKd values are minus log10 of concentrations in M.

// pKd lookup, key: Nc1nc2c(ncn2[C@@H]2O[C@H](COP(=O)(O)OP(=O)(O)O)[C@@H](O)[C@H]2O)c(=O)[nH]1
3.03
